- Target desc: UniProt:P07333
- Sequence (P07333 20-972): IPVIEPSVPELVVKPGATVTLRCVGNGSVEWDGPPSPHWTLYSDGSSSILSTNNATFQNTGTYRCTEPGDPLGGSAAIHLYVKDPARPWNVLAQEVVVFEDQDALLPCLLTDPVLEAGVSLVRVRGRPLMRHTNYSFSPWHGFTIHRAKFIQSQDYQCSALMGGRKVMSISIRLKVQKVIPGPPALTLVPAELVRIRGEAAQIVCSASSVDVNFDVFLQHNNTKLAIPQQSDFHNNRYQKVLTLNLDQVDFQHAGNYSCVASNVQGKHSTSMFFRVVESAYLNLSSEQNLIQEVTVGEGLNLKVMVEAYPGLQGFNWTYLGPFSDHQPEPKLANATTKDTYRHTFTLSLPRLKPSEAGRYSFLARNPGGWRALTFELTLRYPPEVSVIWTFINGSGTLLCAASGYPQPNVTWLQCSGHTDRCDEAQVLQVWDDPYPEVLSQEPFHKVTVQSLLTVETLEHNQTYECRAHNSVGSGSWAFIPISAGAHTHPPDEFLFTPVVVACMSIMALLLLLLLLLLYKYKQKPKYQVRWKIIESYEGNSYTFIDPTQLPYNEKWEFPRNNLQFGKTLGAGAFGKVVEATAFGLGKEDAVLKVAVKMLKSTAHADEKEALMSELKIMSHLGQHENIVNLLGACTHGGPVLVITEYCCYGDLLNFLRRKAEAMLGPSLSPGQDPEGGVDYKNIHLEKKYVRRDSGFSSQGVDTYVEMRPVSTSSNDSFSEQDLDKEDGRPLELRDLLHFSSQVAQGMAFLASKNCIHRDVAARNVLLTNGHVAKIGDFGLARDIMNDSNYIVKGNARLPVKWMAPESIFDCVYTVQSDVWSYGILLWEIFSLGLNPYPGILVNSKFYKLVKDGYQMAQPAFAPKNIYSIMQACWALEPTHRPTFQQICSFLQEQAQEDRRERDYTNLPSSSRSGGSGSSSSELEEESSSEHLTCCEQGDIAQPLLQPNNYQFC
Value type: IC50 (nM)
Numbers only, in nM.

Batch request: IC50 per item, same order as input.
1. COc1cc2nccc(Oc3cnc(NC(=O)c4cn(C(C)C)cc(-c5ccc(F)cc5)c4=O)nc3)c2cc1OC
2. COc1cc2nccc(Oc3ccc(NC(=O)c4nn(C5CC5)cc(-c5ccc(F)cc5)c4=O)cn3)c2cc1OC
3. COc1cc2nccc(Oc3ccc(NC(=O)c4nn(C(C)C)cc(-c5ccc(F)cc5)c4=O)cn3)c2cc1OC
4. COc1cc2nccc(Oc3ccc(NC(=O)c4cn(C(C)C)cc(-c5ccc(F)cc5)c4=O)nc3)c2cc1OC

stdout:
78
68
51
55
